- Subject of test: T1, Recombinant human IGF-II (insulin-like growth factor-II) (human, UniProt P01344 25-91)
- T1 construct: Bought; also called IGF2; IGF-2
- Assay summary: limited antigen ELISA, supernatant 1:25
Measurement type: LA OD, IGF2 2 ng/ml (OD 450 nm)
I only need the number, in OD 450 nm, no unit after it.

See these solved cases before continuing.
1) mAb 7.251.3 (ATCC Accession Number PTA-7422) (antibody, V domains shown, Fully human, lambda light chain (V1-13/JL2)) VH: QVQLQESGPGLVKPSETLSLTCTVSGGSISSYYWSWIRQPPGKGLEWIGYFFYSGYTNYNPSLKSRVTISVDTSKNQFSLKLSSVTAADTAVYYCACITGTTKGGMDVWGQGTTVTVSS VL: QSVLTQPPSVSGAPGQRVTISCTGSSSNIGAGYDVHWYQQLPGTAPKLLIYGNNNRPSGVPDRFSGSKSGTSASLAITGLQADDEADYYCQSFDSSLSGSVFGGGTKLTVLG
1.02
2) mAb 7.34.1 (ATCC Accession Number PTA-7423) (antibody, V domains shown, Fully human, lambda light chain (V1-13/JL2)) VH: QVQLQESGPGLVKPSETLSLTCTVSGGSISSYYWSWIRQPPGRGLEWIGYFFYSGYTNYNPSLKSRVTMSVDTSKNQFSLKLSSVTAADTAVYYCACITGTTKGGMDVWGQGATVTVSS VL: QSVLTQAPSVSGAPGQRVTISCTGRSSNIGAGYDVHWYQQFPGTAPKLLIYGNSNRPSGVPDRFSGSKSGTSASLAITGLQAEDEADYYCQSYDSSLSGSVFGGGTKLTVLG
1.07
3) mAb 7.234.2 (antibody, V domains shown, also called 7.234.1; 7_234_1) VH: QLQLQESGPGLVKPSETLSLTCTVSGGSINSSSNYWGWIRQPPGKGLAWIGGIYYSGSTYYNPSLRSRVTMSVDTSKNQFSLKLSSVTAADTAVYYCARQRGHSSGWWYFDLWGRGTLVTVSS VL: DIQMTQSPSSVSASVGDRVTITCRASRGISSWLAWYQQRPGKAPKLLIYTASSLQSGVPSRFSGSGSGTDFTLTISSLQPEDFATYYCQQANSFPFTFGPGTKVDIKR
1.4

Ask | Param item = mAb 7.158.2 (antibody, V domains shown, also called 7.158.1; 7_158_1) VH: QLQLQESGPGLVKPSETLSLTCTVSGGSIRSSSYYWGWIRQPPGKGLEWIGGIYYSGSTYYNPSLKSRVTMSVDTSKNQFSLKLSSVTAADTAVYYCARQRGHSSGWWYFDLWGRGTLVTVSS VL: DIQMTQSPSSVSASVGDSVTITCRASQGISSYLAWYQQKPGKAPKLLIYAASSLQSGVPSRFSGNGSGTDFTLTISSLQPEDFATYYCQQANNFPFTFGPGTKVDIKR ; retrieve measured LA OD, IGF2 2 ng/ml.
Reply | 1.42

Ask | Param item = mAb 7.159.2 (ATCC Accession Number PTA-7424) (antibody, V domains shown, Fully human, lambda light chain (V1-19/JL2); also called 7.159.1; 7_159_1) VH: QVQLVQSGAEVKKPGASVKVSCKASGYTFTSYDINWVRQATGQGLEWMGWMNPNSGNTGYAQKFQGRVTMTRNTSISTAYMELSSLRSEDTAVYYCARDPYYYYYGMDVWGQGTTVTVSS VL: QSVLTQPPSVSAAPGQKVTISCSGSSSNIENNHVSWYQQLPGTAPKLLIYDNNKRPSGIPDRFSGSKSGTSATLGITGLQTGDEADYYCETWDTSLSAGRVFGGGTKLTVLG ; retrieve measured LA OD, IGF2 2 ng/ml.
Reply | 1.65
